Record form. Attribute: EC90. Fill in for each entry.
Test system: Nonstructural protein 5A (Hepatitis C virus), Q5L478 [Y93H]
Sequence (Q5L478 entry or part of it Y93H): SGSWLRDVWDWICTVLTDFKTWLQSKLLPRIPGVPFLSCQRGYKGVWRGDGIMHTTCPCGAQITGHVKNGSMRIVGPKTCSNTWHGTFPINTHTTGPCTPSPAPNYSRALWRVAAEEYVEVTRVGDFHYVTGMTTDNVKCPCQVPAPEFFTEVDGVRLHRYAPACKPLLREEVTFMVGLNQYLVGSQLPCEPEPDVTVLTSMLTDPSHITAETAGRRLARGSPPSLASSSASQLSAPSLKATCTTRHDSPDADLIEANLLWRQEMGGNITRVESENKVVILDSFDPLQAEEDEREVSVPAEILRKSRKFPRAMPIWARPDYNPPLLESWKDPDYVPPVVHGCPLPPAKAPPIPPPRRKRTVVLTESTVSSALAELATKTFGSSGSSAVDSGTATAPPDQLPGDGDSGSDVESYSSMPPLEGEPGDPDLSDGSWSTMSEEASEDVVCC
Assay Name: Inhibition of NS5A Y93H mutant in HCV genotype 1a infected in HuH7 replicon cells assessed as decrease in viral replication after 3 days by RT-PCR method
Assay type: cell-based
Settings: Hepatitis C virus subtype 1a
Write it as a number; the unit nM goes unstated.

[ask] Any idea what its EC90 is? The compound is `COC(=O)N[C@H](C(=O)N1CCC[C@H]1c1ncc(-c2cc(F)c3c(c2)O[C@@H](c2ccc4c(c2)OCCC4)n2c-3cc3cc(-c4cnc([C@@H]5CCCN5C(=O)[C@@H](NC(=O)OC)C5CCOCC5)[nH]4)ccc32)[nH]1)C(C)C`
[reply] 0.035

[ask] Could you share which EC90 value was measured for `COC(=O)N[C@H](C(=O)N1CCC[C@H]1c1ncc(-c2cc(F)c3c(c2)O[C@@H](c2ccc(C4CC4)s2)n2c-3cc3cc(-c4cnc([C@@H]5CCCN5C(=O)[C@@H](NC(=O)OC)[C@H]5CCOC(C)(C)C5)[nH]4)ccc32)[nH]1)C(C)C` ?
[reply] 0.018

[ask] Could you tell me which EC90 is on file for `COC(=O)N[C@H](C(=O)N1CCC[C@H]1c1ncc(-c2cc(F)c3c(c2)O[C@@H](c2ccc(C(C)C)s2)n2c-3cc3cc(-c4cnc([C@@H]5CCCN5C(=O)[C@@H](NC(=O)OC)[C@@H]5CCOC(C)(C)C5)[nH]4)ccc32)[nH]1)C(C)C` ?
[reply] 0.036

[ask] Record request: EC90 value, item `COC(=O)N[C@H](C(=O)N1CCC[C@H]1c1ncc(-c2cc(F)c3c(c2)O[C@@H](c2cc4c(s2)CCC4)n2c-3cc3cc(-c4cnc([C@@H]5CCCN5C(=O)[C@@H](NC(=O)OC)[C@@H]5CCOC(C)(C)C5)[nH]4)ccc32)[nH]1)C(C)C`
[reply] 0.117

[ask] Reported EC90, compound `CCc1ncc([C@@H]2Oc3cc(-c4cnc([C@@H]5CCCN5C(=O)[C@@H](NC(=O)OC)C(C)C)[nH]4)cc(F)c3-c3cc4cc(-c5cnc([C@@H]6CCCN6C(=O)[C@@H](NC(=O)OC)[C@@H]6CCOC(C)(C)C6)[nH]5)ccc4n32)s1` : ____
[reply] 0.017

[ask] GET /values?readout=EC90&item= `COC(=O)N[C@H](C(=O)N1CCC[C@H]1c1ncc(-c2ccc3c(c2)cc2n3[C@H](c3ccc(C4CC4)s3)Oc3cc(-c4cnc([C@@H]5CCCN5C(=O)[C@@H](NC(=O)OC)[C@@H]5CCOC(C)(C)C5)[nH]4)cc(F)c3-2)[nH]1)C(C)C`
[reply] 0.036

[ask] Quick one: EC90 of COC(=O)N[C@H](C(=O)N1CCC[C@H]1c1ncc(-c2cc(F)c3c(c2)O[C@@H](c2ccc(C4CC4)s2)n2c-3cc3cc(-c4cnc([C@@H]5CCCN5C(=O)[C@@H](NC(=O)OC)C5CCOC6(CC6)C5)[nH]4)ccc32)[nH]1)C(C)C (stereo partly drawn) ?
[reply] 0.049

[ask] So what's the measured EC90 for this one? `COC(=O)N[C@H](C(=O)N1CCC[C@H]1c1ncc(-c2cc(F)c3c(c2)O[C@@H](c2ccc4c(c2)OCCC4)n2c-3cc3cc(-c4cnc([C@@H]5CCCN5C(=O)[C@@H](NC(=O)OC)[C@@H]5CCOC(C)(C)C5)[nH]4)ccc32)[nH]1)C(C)C`
[reply] 0.048

* * *

Assayed System: Nonstructural protein 5A (Hepatitis C virus)
Assay Name: Inhibition of NS5A in HCV genotype 1a infected in HuH7 replicon cells assessed as decrease in viral replication after 3 days by RT-PCR method
Format: cell-based
Settings: Hepatitis C virus subtype 1a
Reported Endpoint: EC90 (pM)
Please give a number only; it is taken to be in pM.

[ask] Using the record for COC(=O)N[C@H](C(=O)N1CCC[C@H]1c1ncc(-c2cc(F)c3c(c2)O[C@@H](c2ccc(C4CC4)s2)n2c-3cc3cc(-c4cnc([C@@H]5CCCN5C(=O)[C@@H](NC(=O)OC)C5CCOC6(CC6)C5)[nH]4)ccc32)[nH]1)C(C)C (stereo partly specified) , report its EC90.
[reply] 6

[ask] Which measured EC90 value corresponds to `COC(=O)N[C@H](C(=O)N1CCC[C@H]1c1ncc(-c2cc(F)c3c(c2)O[C@@H](c2ccc(C4CC4)s2)n2c-3cc3cc(-c4cnc([C@@H]5CCCN5C(=O)[C@@H](NC(=O)OC)C5CC(C)(C)OC(C)(C)C5)[nH]4)ccc32)[nH]1)C(C)C` ?
[reply] 4

[ask] # query: EC90 of entry `COC(=O)N[C@H](C(=O)N1CCC[C@H]1c1ncc(-c2cc(F)c3c(c2)O[C@@H](c2cnc(C4CC4)s2)n2c-3cc3cc(-c4cnc([C@@H]5CCCN5C(=O)[C@@H](NC(=O)OC)[C@@H]5CCOC(C)(C)C5)[nH]4)ccc32)[nH]1)C(C)C`
[reply] 6

[ask] Give the measured EC90 of COC(=O)N[C@H](C(=O)N1CCC[C@H]1c1ncc(-c2cc(F)c3c(c2)O[C@@H](c2ccc(C4CC4)s2)n2c-3cc3cc(-c4cnc([C@@H]5CCCN5C(=O)[C@@H](NC(=O)OC)C5CC6CCC(C5)O6)[nH]4)ccc32)[nH]1)C(C)C (stereo partly specified) .
[reply] 5

[ask] Need EC90 of COC(=O)N[C@H](C(=O)N1CCC[C@H]1c1ncc(-c2cc(F)c3c(c2)O[C@@H](c2ccc(C4CC4)s2)n2c-3cc3cc(-c4cnc([C@@H]5CCCN5C(=O)[C@@H](NC(=O)OC)C5CCO[C@H](C)C5)[nH]4)ccc32)[nH]1)C(C)C (stereo partly specified) , thanks.
[reply] 4

[ask] Which EC90 value is on record for `COC(=O)N[C@H](C(=O)N1CCC[C@H]1c1ncc(-c2cc(F)c3c(c2)O[C@@H](c2ccc4c(c2)OCCC4)n2c-3cc3cc(-c4cnc([C@@H]5CCCN5C(=O)[C@@H](NC(=O)OC)[C@@H]5CCOC(C)(C)C5)[nH]4)ccc32)[nH]1)C(C)C` ?
[reply] 3

[ask] May I ask what EC90 has been recorded for `COC(=O)N[C@H](C(=O)N1CCC[C@H]1c1ncc(-c2cc(F)c3c(c2)O[C@@H](c2ccc4c(c2)OCCC4)n2c-3cc3cc(-c4cnc([C@@H]5CCCN5C(=O)[C@@H](NC(=O)OC)C5CCOCC5)[nH]4)ccc32)[nH]1)C(C)C` ?
[reply] 4

[ask] Entry under review: CC[C@@H]1CC([C@H](NC(=O)OC)C(=O)N2CCC[C@H]2c2ncc(-c3ccc4c(c3)cc3n4[C@H](c4ccc(C5CC5)s4)Oc4cc(-c5cnc([C@@H]6CCCN6C(=O)[C@@H](NC(=O)OC)C(C)C)[nH]5)cc(F)c4-3)[nH]2)C[C@H](CC)O1 (stereo partly specified) . Reported EC90?
[reply] 17

[ask] If you can, please state the reported EC90 value of `COC(=O)N[C@H](C(=O)N1CCC[C@H]1c1ncc(-c2cc(F)c3c(c2)O[C@@H](c2ccc(C4CC4)s2)n2c-3cc3cc(-c4cnc([C@@H]5CCCN5C(=O)[C@@H](NC(=O)OC)C5CCOCC5)[nH]4)ccc32)[nH]1)C(C)C` .
[reply] 4

[ask] What measured EC90 goes with `COC(=O)N[C@H](C(=O)N1CCC[C@H]1c1ncc(-c2ccc3c(c2)cc2n3[C@H](c3ccc(C4CC4)s3)Oc3cc(-c4cnc([C@@H]5CCCN5C(=O)[C@@H](NC(=O)OC)[C@@H]5CCOC(C)(C)C5)[nH]4)cc(F)c3-2)[nH]1)C(C)C` ?
[reply] 6

[ask] What value of measured EC90 is listed for `CCc1ncc([C@@H]2Oc3cc(-c4cnc([C@@H]5CCCN5C(=O)[C@@H](NC(=O)OC)C(C)C)[nH]4)cc(F)c3-c3cc4cc(-c5cnc([C@@H]6CCCN6C(=O)[C@@H](NC(=O)OC)[C@@H]6CCOC(C)(C)C6)[nH]5)ccc4n32)s1` ?
[reply] 6

[ask] Item under review: `COC(=O)N[C@H](C(=O)N1CCC[C@H]1c1ncc(-c2cc(F)c3c(c2)O[C@@H](c2ccc(C4CC4)s2)n2c-3cc3cc(-c4cnc([C@@H]5CCCN5C(=O)[C@@H](NC(=O)OC)[C@@H]5CCOC(C)(C)C5)[nH]4)ccc32)[nH]1)C(C)C` . Reported EC90?
[reply] 4.2

[ask] Bench note: what EC90 did `COC(=O)N[C@H](C(=O)N1CCC[C@H]1c1ncc(-c2cc(F)c3c(c2)O[C@@H](c2cnc(C(C)C)s2)n2c-3cc3cc(-c4cnc([C@@H]5CCCN5C(=O)[C@@H](NC(=O)OC)[C@@H]5CCOC(C)(C)C5)[nH]4)ccc32)[nH]1)C(C)C` show?
[reply] 6

[ask] Name the recorded EC90 for COC(=O)N[C@H](C(=O)N1CCC[C@H]1c1ncc(-c2cc(F)c3c(c2)O[C@@H](c2ccc(C4CC4)s2)n2c-3cc3cc(-c4cnc([C@@H]5CCCN5C(=O)[C@@H](NC(=O)OC)C5C[C@@H](C)O[C@@H](C)C5)[nH]4)ccc32)[nH]1)C(C)C (stereo partly specified) .
[reply] 4

[ask] Reported EC90 for `COC(=O)N[C@H](C(=O)N1CCC[C@H]1c1ncc(-c2cc(F)c3c(c2)O[C@@H](c2ccc(C(C)C)s2)n2c-3cc3cc(-c4cnc([C@@H]5CCCN5C(=O)[C@@H](NC(=O)OC)[C@@H]5CCOC(C)(C)C5)[nH]4)ccc32)[nH]1)C(C)C` : what is it?
[reply] 4

[ask] // EC90 lookup, key: `COC(=O)N[C@H](C(=O)N1CCC[C@H]1c1ncc(-c2ccc3c(c2)cc2n3[C@H](c3ccc4c(c3)OCCC4)Oc3cc(-c4cnc([C@@H]5CCCN5C(=O)[C@@H](NC(=O)OC)C5CCOCC5)[nH]4)cc(F)c3-2)[nH]1)C(C)C`
[reply] 2

Just for reference, ChEMBL document CHEMBL4177770 is where these values come from.
